Values compiled from patent US20090137572A1.

- target_or_system: CDK7/cyclin H (Homo sapiens)
- assay_remarks: CDK 7 assay (CTD peptide substrate)
- Assay type: biochemical
- run_parameters: read-out: Kinase Inhibition pIC50 CDK7-cyclin H (converted)
parameter: IC50 (µM)

Worked cases, IC50 given:
Cc1nc(N)sc1-c1ccnc(Nc2ccc(N3CCOCC3)c(C(N)=O)c2)n1 :: 6.31
Cc1nc(N)sc1-c1ccnc(Nc2ccc(N3CCNCC3)cc2)n1 :: 0.398
Cc1nc(CS(=O)(=O)c2cccs2)sc1-c1ccnc(Nc2ccc(N3CCOCC3)cc2)n1 :: 3.16
CNc1nc(C)c(-c2ccnc(Nc3cccc(N4CCNCC4)c3)n2)s1 :: 0.631
COCCOC(=O)Cc1cccc(Nc2nccc(-c3sc(N)nc3C)n2)c1 :: 3.16
Cc1nc(C)c(-c2ccnc(Nc3ccc(C)c(S(=O)(=O)N4CCOCC4)c3)n2)s1 :: 3.98

1: Cc1nc(N)sc1-c1ccnc(Nc2cccc(S(=O)(=O)N3CCOCC3)c2)n1
2: CC(=O)NCc1cccc(Nc2nccc(-c3sc(-c4cccnc4)nc3C)n2)c1
// task: argmin of IC50 over [ 1 , 2 ] Give the label under which the chosen entry appears.
2
(2: 3.98 µM, 1: 6.31 µM)

###

- target_or_system: CDK1-cyclin B (Homo sapiens)
- Sequence (P06493 whole entry): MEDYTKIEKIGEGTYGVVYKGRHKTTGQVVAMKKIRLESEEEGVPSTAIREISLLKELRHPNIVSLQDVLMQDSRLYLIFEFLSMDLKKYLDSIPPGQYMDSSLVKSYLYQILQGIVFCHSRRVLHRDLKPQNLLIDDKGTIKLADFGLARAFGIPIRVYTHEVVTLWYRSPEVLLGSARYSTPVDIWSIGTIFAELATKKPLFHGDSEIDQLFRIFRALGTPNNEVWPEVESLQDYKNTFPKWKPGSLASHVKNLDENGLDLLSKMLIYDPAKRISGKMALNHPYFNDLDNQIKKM
- Sequence (P14635 whole entry partner): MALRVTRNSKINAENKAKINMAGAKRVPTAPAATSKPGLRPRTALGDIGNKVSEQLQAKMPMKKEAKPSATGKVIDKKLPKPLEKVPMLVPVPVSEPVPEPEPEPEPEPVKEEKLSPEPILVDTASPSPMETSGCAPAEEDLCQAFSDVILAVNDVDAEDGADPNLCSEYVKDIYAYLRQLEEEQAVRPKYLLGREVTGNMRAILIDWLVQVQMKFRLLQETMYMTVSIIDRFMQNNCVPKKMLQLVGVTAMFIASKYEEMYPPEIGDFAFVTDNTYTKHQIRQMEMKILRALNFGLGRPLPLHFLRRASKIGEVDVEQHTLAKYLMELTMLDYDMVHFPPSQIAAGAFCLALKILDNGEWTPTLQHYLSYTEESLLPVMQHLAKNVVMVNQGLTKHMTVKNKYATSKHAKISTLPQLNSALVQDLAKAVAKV
- assay_remarks: Kinase assay (radioactive phosphate incorporation), CDK1-cyclin B
- Format: biochemical
- run_parameters: read-out: Kinase Inhibition pIC50 CDK1-cyclin B (converted)
parameter: IC50 (µM)

Worked cases, IC50 given:
CNc1nc(C)c(-c2ccnc(Nc3ccc(S(C)(=O)=O)cc3)n2)s1 :: 0.158
CCNc1nc(C)c(-c2ccnc(Nc3ccc(S(C)(=O)=O)cc3)n2)s1 :: 1

I: CC(=O)N1CCN(c2ccc(Nc3nccc(-c4sc(N)nc4C)n3)cc2)CC1
II: CC(=O)NCc1ccc(Nc2nccc(-c3sc(C)nc3C)n2)cc1
III: CCNc1nc(C)c(-c2ccnc(Nc3ccc(S(=O)(=O)NCCO)cc3)n2)s1
IV: CNc1nc(C)c(-c2ccnc(Nc3cccc(CC(=O)OCCOC)c3)n2)s1
V: CNc1nc(C)c(-c2ccnc(Nc3cccc(N4CCNCC4)c3)n2)s1
Arrange the 5 entries by IC50 so the values rise. Your answer should be the labels, listed in the requested order.
III, II, IV, V, I

P: CNc1nc(C)c(-c2ccnc(Nc3ccc(S(=O)(=O)NCc4ccccc4)cc3)n2)s1
Q: CCNc1nc(C)c(-c2ccnc(Nc3ccc(S(N)(=O)=O)cc3)n2)s1
Returns: the argument ( P or Q ) having the larger IC50. Give the label under which the chosen entry appears.
P
(P: 0.794 µM, Q: 0.0316 µM)

###

parameter: melting point

Which melting point value is on record for Cc1nc(C)c(-c2ccnc(Nc3ccc(N4CCCCC4)c(C)c3)n2)s1 ?
159 to 160 °C

Which melting point value is on record for CC(=O)NCc1ccc(Nc2nccc(-c3sc(-c4cccnc4)nc3C)n2)cc1 ?
199 to 201 °C

Which melting point value is on record for CC(=O)N1CCN(c2ccc(Nc3nccc(-c4sc(N(C)c5cccnc5)nc4C)n3)cc2)CC1 ?
205 to 206 °C

Which melting point value is on record for Cc1nc(-c2nc(C)c(-c3ccnc(Nc4ccc(N5CCOCC5)cc4)n3)s2)cs1 ?
262 to 263 °C

###

- target_or_system: CDK7/cyclin H (Homo sapiens, UniProt P50613)
- Sequence (P50613 whole entry): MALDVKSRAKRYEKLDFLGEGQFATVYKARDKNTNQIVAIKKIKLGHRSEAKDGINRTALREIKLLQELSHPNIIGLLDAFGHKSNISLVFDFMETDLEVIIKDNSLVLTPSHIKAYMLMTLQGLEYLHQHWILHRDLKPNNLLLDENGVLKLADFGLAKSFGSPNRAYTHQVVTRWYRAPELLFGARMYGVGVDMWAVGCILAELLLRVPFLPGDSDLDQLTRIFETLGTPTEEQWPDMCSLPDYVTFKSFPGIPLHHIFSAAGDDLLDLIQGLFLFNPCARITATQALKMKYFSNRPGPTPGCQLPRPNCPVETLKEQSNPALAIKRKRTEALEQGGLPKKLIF
- Sequence (P51946 whole entry partner): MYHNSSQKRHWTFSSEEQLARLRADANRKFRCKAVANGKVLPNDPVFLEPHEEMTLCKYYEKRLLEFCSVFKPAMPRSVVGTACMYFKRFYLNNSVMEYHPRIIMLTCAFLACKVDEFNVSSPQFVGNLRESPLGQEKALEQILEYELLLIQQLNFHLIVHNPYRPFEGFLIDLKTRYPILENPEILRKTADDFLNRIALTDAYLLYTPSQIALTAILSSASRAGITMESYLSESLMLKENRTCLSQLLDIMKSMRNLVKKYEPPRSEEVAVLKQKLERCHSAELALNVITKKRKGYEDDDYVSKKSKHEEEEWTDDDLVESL
- assay_remarks: CDK 7 assay (CTD peptide substrate)
- Format: biochemical
- run_parameters: read-out: Kinase Inhibition pIC50 CDK7-cyclin H (converted)
parameter: IC50 (nM)

Worked cases, IC50 given:
Cc1nc(N)sc1-c1ccnc(Nc2ccc(N3CCCCC3)cc2)n1 :: 1580
CNc1nc(C)c(-c2ccnc(Nc3cccc(S(N)(=O)=O)c3)n2)s1 :: 50.1
CNc1nc(C)c(-c2ccnc(Nc3cccc(S(=O)(=O)NCCOC)c3)n2)s1 :: 794

P: CNc1nc(C)c(-c2ccnc(Nc3ccc(C)c(S(=O)(=O)N4CCOCC4)c3)n2)s1
Q: CCNc1nc(C)c(-c2ccnc(Nc3cccc(S(=O)(=O)NCCO)c3)n2)s1
// task: argmin of IC50 over [ P , Q ] Give the label under which the chosen entry appears.
Q

A: CNc1nc(C)c(-c2ccnc(Nc3cccc(CC(=O)OCCOC)c3)n2)s1
B: Cc1nc(N)sc1-c1ccnc(Nc2cccc(CNS(C)(=O)=O)c2)n1
C: Cc1nc(N)sc1-c1ccnc(Nc2cccc(CNS(=O)(=O)C(F)(F)F)c2)n1
Arrange the 3 entries by IC50 so the values rise. Your answer should be the labels, listed in the requested order.
B, C, A
(B: 126 nM, C: 200 nM, A: 3160 nM)

###

- target_or_system: protein kinases (panel of Table 4) (Homo sapiens)
- Construct: other: kinase GSK3a; ATP 100 μM
- assay_remarks: Kinase selectivity profile, kinase inhibition IC50 (Table 4), ATP 100 μM
- Type: biochemical
- run_parameters: kinase GSK3a
pIC50: −log10 of the molar value.
parameter: pIC50

A: Cc1ccc(Nc2nccc(-c3sc(N)nc3C)n2)cc1S(=O)(=O)N1CCOCC1
B: COCCNS(=O)(=O)c1cccc(Nc2nccc(-c3sc(N)nc3C)n2)c1
// task: argmin of pIC50 over [ A , B ] Give the label under which the chosen entry appears.
A
(A: 6.02, B: 6.54)

###

- target_or_system: CDK9/cyclin T1 (Homo sapiens, UniProt P50750)
- Sequence (P50750 whole entry): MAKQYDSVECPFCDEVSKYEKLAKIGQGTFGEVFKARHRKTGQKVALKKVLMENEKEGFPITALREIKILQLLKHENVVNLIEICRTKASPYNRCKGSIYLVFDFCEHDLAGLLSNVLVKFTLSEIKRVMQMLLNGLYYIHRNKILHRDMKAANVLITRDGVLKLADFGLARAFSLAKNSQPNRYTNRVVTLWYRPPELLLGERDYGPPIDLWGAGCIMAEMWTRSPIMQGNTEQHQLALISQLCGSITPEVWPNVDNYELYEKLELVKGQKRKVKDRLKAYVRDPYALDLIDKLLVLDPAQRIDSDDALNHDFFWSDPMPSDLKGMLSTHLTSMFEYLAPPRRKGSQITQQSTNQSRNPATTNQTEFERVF
- Sequence (O60563 whole entry partner): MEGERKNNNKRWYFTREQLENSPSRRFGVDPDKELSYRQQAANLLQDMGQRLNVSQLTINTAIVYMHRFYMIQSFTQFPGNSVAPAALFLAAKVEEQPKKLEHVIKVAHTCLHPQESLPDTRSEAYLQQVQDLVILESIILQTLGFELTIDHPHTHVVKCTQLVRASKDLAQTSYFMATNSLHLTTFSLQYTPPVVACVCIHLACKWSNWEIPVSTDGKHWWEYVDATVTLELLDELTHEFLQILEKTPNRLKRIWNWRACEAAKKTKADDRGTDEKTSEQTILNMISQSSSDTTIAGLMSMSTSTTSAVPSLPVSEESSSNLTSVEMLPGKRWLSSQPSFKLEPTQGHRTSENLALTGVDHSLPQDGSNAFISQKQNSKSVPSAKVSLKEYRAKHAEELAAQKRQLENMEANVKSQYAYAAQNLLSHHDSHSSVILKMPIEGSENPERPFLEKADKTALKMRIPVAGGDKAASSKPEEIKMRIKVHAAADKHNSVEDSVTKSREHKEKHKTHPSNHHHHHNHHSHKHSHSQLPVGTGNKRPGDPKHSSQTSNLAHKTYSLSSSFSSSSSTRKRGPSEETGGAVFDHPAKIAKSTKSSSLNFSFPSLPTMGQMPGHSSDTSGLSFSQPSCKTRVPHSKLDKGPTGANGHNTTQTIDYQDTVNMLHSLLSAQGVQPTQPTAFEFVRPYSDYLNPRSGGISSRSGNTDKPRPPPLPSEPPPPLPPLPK
- assay_remarks: CDK 9 assay (CTD peptide substrate)
- Type: biochemical
- run_parameters: read-out: Kinase Inhibition pIC50 CDK9-cyclin T1 (converted)
parameter: IC50 (µM)

Worked cases, IC50 given:
CNc1nc(C)c(-c2ccnc(Nc3ccc(CNC(C)=O)cc3)n2)s1 :: 0.0794
COc1cc(Nc2nccc(-c3sc(N)nc3C)n2)cc(OC)c1OC :: 0.316
COCCNS(=O)(=O)c1cccc(Nc2nccc(-c3sc(C)nc3C)n2)c1 :: 0.501
Cc1ccc(Nc2nccc(-c3sc(NC(C)(C)C)nc3C)n2)cc1[N+](=O)[O-] :: 0.316
Cc1nc(N)sc1-c1ccnc(Nc2ccc(N3CCCCC3)cc2)n1 :: 0.398
COCCNS(=O)(=O)c1cccc(Nc2nccc(-c3sc(N)nc3C)n2)c1 :: 0.0316

1: Cc1nc(N)sc1-c1ccnc(Nc2ccc(N3CCOCC3)c(C(N)=O)c2)n1
2: Cc1cc(Nc2nccc(-c3sc(CO)nc3C)n2)ccc1N1CCOCC1
3: CCOC(=O)Cc1cccc(NS(=O)(=O)c2ccc(Nc3nccc(-c4sc(NC)nc4C)n3)cc2)c1
4: CNc1nc(C)c(-c2ccnc(Nc3cccc(S(=O)(=O)NC(C)=O)c3)n2)s1
5: CCNc1nc(C)c(-c2ccnc(Nc3cccc(Br)c3)n2)s1
Kindly order the items shown according to IC50, from the highest value down. Your answer should be the labels, listed in the requested order.
3, 2, 1, 4, 5

I: Cc1nc(C)c(-c2ccnc(Nc3ccc(S(=O)(=O)NCCO)cc3)n2)s1
II: COc1cc(Nc2nccc(-c3sc(CO)nc3C)n2)ccc1N1CCCCC1
// task: argmin of IC50 over [ I , II ] Give the label under which the chosen entry appears.
I
(I: 0.398 µM, II: 0.631 µM)

###

- target_or_system: CDK2-cycline E (Homo sapiens, UniProt P24941)
- assay_remarks: Kinase assay (radioactive phosphate incorporation), CDK2-cyclin E
- Format: biochemical
- run_parameters: read-out: Kinase Inhibition pIC50 CDK2-cycline E (converted)
parameter: IC50 (nM)

I: CCNc1nc(C)c(-c2ccnc(Nc3cccc(S(N)(=O)=O)c3)n2)s1
II: COCCNS(=O)(=O)c1ccc(Nc2nccc(-c3sc(N)nc3C)n2)cc1
// task: argmin of IC50 over [ I , II ] Give the label under which the chosen entry appears.
II
(II: 7.94 nM, I: 794 nM)

P: COc1cc(Nc2nccc(-c3sc(N)nc3C)n2)ccc1N1CCOCC1
Q: CNc1nc(C)c(-c2ccnc(Nc3ccc(S(=O)(=O)NCc4ccccc4)cc3)n2)s1
R: CNc1nc(C)c(-c2ccnc(Nc3cc(OC)cc(OC)c3)n2)s1
S: Cc1nc(C)c(-c2ccnc(Nc3ccc(CN4CCOCC4)cc3)n2)s1
Kindly order the items shown according to IC50, from the highest value down. Your answer should be the labels, listed in the requested order.
S, P, R, Q
(S: 1260 nM, P: 794 nM, R: 316 nM, Q: 158 nM)

P: Cc1nc(N)sc1-c1ccnc(Nc2ccc(N3CCCCC3)cc2)n1
Q: CCNc1nc(C)c(-c2ccnc(Nc3cccc(S(=O)(=O)NCCO)c3)n2)s1
// task: argmin of IC50 over [ P , Q ] Give the label under which the chosen entry appears.
Q

###

Let's go through some recorded IC50 values for protein kinases (panel of Table 4) (Homo sapiens) together.
parameter: IC50 (nM)

A: Cc1ccc(Nc2nccc(-c3sc(N)nc3C)n2)cc1S(=O)(=O)N1CCOCC1
B: CNc1nc(C)c(-c2ccnc(Nc3cccc(S(C)(=O)=O)c3)n2)s1
C: COCCNS(=O)(=O)c1cccc(Nc2nccc(-c3sc(N)nc3C)n2)c1
Provide the items ranked by increasing IC50. Your answer should be the labels, listed in the requested order.
B, C, A
(B: 94 nM, C: 450 nM, A: 2200 nM)
